- System: FXR:RXRa (NR concentration 270 nM, RXRa partner concentration 90 nM)
- test.summary: PBM binding z-score (relative to random genomic background probes); higher = stronger binding; sequences stand for … in GC…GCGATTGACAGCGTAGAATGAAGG
measured.parameter: PBM binding z-score
Simply state the number, no unit and no words.

# annotated cases, reported PBM binding z-score shown
>>> value_observed("CGAACTAGGTCTAGGACAGTGAATCTCCGCACGC")
-0.409
>>> value_observed("CCTTACGGGTTAAGGTTATAGCACGGGTGGTACG")
1.55

Inquiry: API: value(readout= PBM binding z-score, system= FXR:RXRa (NR concentration 270 nM, RXRa partner concentration 90 nM), query= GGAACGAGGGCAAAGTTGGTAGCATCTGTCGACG )
Reply text: 1.06

Inquiry: Try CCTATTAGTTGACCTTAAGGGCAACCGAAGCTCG next.
Reply text: 6.12

Inquiry: Same again, this time with GGAACGAGGCCAAGTTGATAGCAGAGTTTGATGG
Reply text: -0.211

Inquiry: Next entry: AATACAGGGTCAATAGGCCAGAGTAGGTACGAAT
Reply text: 6.54

Inquiry: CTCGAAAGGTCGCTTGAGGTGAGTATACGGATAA ?
Reply text: 4.18

---

PBM binding z-score listing for selected sequences.
- Test system: RARb homodimer (NR concentration 270 nM)
- test.summary: PBM binding z-score (relative to random genomic background probes); higher = stronger binding; sequences stand for … in GC…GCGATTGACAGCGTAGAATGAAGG

>>> value_observed("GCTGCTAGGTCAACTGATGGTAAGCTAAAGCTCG")
2.98
>>> value_observed("ATATGTAGGTTAGCTGGGATCATTCAGACTAGGC")
0.428
>>> value_observed("CCAGACAGGTGAGAACGTAACTCAGCCTCGATTA")
0.118

Inquiry: For the sequence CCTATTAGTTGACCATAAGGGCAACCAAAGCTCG , what PBM binding z-score is on record?
Reply text: 2.24

Inquiry: Same thing, different sequence: TATAGAGGGTCAAAGGCCAGAGTACGAATGTCGA
Reply text: 3.3

Inquiry: Same question for TCTTGTAGATCAGCAGTTTAAGAAAGCTGGCCAA please.
Reply text: -0.447

---

- Tested on: PPARg:RXRa 90nM:30nM, anti-RXR (NR concentration 90 nM, RXRa partner concentration 30 nM)
- test.summary: PBM binding z-score (relative to random genomic background probes); higher = stronger binding; sequences stand for … in GC…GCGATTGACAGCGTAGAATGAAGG
measured.parameter: PBM binding z-score
The response must contain the number and no unit.

>>> value_observed("CGTCCAAGATCAAGGTCAGTGAAAGAGACTCGAA")
0.76
>>> value_observed("AGAACGAGGGCACGCTGAGTTGATACCAGAGTAG")
1.03
>>> value_observed("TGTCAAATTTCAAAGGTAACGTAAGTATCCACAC")
1.41

Inquiry: What does the record list as PBM binding z-score for CCGACTTGGGCAAGGTTACCATAACGCACAGCCA ?
Reply text: 0.00151

---

- System: RARg:RXRa (NR concentration 270 nM, RXRa partner concentration 90 nM)
- test.summary: PBM binding z-score (relative to random genomic background probes); higher = stronger binding; sequences stand for … in GC…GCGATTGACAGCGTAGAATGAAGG
measured.parameter: PBM binding z-score

Examples with their reported PBM binding z-score follow.
>>> value_observed("ACTATTAGTTTACTTAGGGCAACCGATACGACGC")
0.56
>>> value_observed("CCTACTGGGCCAAGGTCACTGATCAGTCAAAGCA")
4.17
>>> value_observed("TCAGATAGGTAAAAGGTGAAAGTCGGTGTGGTAA")
1.89

Inquiry: Give its PBM binding z-score value. Item: CATACAGGGTCAGCTAGGTCAGAGTAGGGACGGC
Reply text: 5.09

Inquiry: // repeat for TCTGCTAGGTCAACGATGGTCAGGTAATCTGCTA and report
Reply text: 4.2

Inquiry: Repeat for the following sequence: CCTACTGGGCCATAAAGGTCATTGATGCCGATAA
Reply text: 4.52

Inquiry: Then TCTGTTAGTTGATTAGGGCAACCGAAACAGCGGA ?
Reply text: 0.9

Inquiry: Would you kindly repeat that for TGAATCAGGTTAAAGATCAGGGAACGTGGCGTCG ?
Reply text: 0.805
